Experiment: Inhibition of human CK2 protein
Assay endpoint: pIC50
Here pIC50 is given on a logarithmic scale as minus log10 of the concentration in mol/L.

Look over these answered cases.
query_smiles=N#Cc1cnn2c3cc(nc12)N1C[C@H](C[C@H]1CO)OCCCCOc1cc(cc2c1NC(=O)CC2)N3 meas_value=6.40
query_smiles=O=C(O)CCN1C(=O)/C(=C2/C(=O)Nc3ccc(Cl)cc32)SC1=S meas_value=6.16
query_smiles=COc1cccc(CN2C(=O)CCc3cc4cc(c32)OC/C=C/CO[C@H]2C[C@@H](CO)N(C2)c2cc(n3ncc(C#N)c3n2)N4)c1 meas_value=5.92
query_smiles=CN1C(=O)CCc2cc3cc(c21)OC/C=C/CO[C@H]1C[C@@H](CO)N(C1)c1cc(n2ncc(Cl)c2n1)N3 meas_value=5.15
query_smiles=O=C1CCc2cc3cc(c2N1CC1CC(F)(F)C1)OC/C=C/CO[C@H]1C[C@@H](CO)N(C1)c1cc(n2ncc(Cl)c2n1)N3 meas_value=5.68

Item "O=C1CCc2cc3cc(c2N1)OC/C=C/CO[C@H]1C[C@@H](CO)N(C1)c1cc(n2ncc(Cl)c2n1)N3" has what recorded pIC50?
5.14

Same question for "O=C1CCc2cc3cc(c2N1CCCN1CCOCC1)OC/C=C/CO[C@H]1C[C@@H](CO)N(C1)c1cc(n2ncc(Cl)c2n1)N3" please.
5.23

Same question for "O=C1CCc2cc3cc(c2N1)OCCCCO[C@H]1C[C@@H](CO)N(C1)c1cc(n2ncc(Cl)c2n1)N3" please.
5.85

* * *

GI50 overview
Tested on: OCI-Ly1
Test: Antiproliferative activity against BCL6 dependent human OCI-LY1 cells after 3 days by CellTiter-Glo assay
Assay type: functional
Settings: OCI-Ly1, 72 h
Report the value in µM with no unit label.

query_smiles=COc1cccc(CN2C(=O)CCc3cc4cc(c32)OC/C=C/CO[C@H]2C[C@@H](CO)N(C2)c2cc(n3ncc(C#N)c3n2)N4)c1 assay_endpoint=GI50 meas_value=3.16

Item "O=C1CCc2cc3cc(c2N1)OCCCCO[C@H]1C[C@@H](CO)N(C1)c1cc(n2ncc(Cl)c2n1)N3" has what recorded GI50?
6.31

Same question for "O=C(O)C[C@@H]1C[C@H]2CN1c1cc(n3ncc(Cl)c3n1)Nc1cc3c(c(c1)OC/C=C/CO2)N(CC1CC(F)(F)C1)C(=O)CC3" please.
15.8

Same question for "O=C(O)CCN1C(=O)/C(=C2/C(=O)Nc3ccc(Cl)cc32)SC1=S" please.
20

Same question for "O=C1CCc2cc3cc(c2N1)OCCCCO[C@H]1C[C@@H](CO)N(C1)c1cc(n2nccc2n1)N3" please.
12.6

Same question for "O=C1CCc2cc3cc(c2N1Cc1ccccc1)OC/C=C/CO[C@H]1C[C@@H](CO)N(C1)c1cc(n2ncc(Cl)c2n1)N3" please.
12.6

Same question for "N#Cc1cnn2c3cc(nc12)N1C[C@H](C[C@H]1CO)OCCCCOc1cc(cc2c1NC(=O)CC2)N3" please.
25.1

Same question for "Cc1ccccc1CN1C(=O)CCc2cc3cc(c21)OC/C=C/CO[C@H]1C[C@@H](CO)N(C1)c1cc(n2ncc(Cl)c2n1)N3" please.
10

Same question for "N#Cc1cnn2c3cc(nc12)N1C[C@H](C[C@H]1CO)OC/C=C/COc1cc(cc2c1NC(=O)CC2)N3" please.
10

Same question for "Cc1ccc(CN2C(=O)CCc3cc4cc(c32)OC/C=C/CO[C@H]2C[C@@H](CO)N(C2)c2cc(n3ncc(Cl)c3n2)N4)cc1" please.
7.94

Same question for "O=C1CCc2cc3cc(c2N1CCCN1CCOCC1)OC/C=C/CO[C@H]1C[C@@H](CO)N(C1)c1cc(n2ncc(Cl)c2n1)N3" please.
10

Every entry's value here was drawn from ChEMBL document CHEMBL4014321.
